System: MOLM14;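 further: after 48 h exposure read by CellTiter-Glo luminescence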
Assay: cell viability relative to vehicle control; higher = less cytotoxic
Details: 10 µM; SRSF2 genotype: SRSF2 wt/wt
Where a name gives a salt, the structure may show the parent alone.
Define the label as 1 (yes) when cell viability is strictly less than 90% and as 0 (no) in all remaining cases.

Below are worked cases with known answers.
CNC[C@@H](O)c1ccc(O)c(O)c1 [L-Adrenaline (Epinephrine)] ... 0 (no)
CCc1cccc2c3c([nH]c12)C(CC)(CC(=O)O)OCC3 (configuration not stated) ... 0 (no)

Asked: Strictly below 90%: is that where cell viability of CCCC1CC(C(=O)NC(C(C)Cl)C2OC(SC)C(O)C(O)C2O)N(C)C1 (configuration not stated) [Clindamycin alcoholate] sits?
Given back: 0 (no)

Asked: Strictly below 90%: is that where cell viability of C[C@@H](CN1CC(=O)NC(=O)C1)N1CC(=O)NC(=O)C1 [Dexrazoxane Hydrochloride] sits?
Given back: 1 (yes)

Asked: Strictly below 90%: is that where cell viability of COc1ncnc(NS(=O)(=O)c2ccc(N)cc2)c1OC [Sulfadoxine (Sulphadoxine)] sits?
Given back: 0 (no)

Asked: Strictly below 90%: is that where cell viability of Cc1nc(Nc2n[nH]c3c2CN(C(=O)N[C@H](CN(C)C)c2ccccc2)C3(C)C)c2sccc2n1 sits?
Given back: 1 (yes)

Asked: Strictly below 90%: is that where cell viability of Cn1nnc(-c2ccc3c(c2)[nH]c2nc(Cc4ccccc4)nc(NC4CCC(N)CC4)c23)n1 (configuration not stated) sits?
Given back: 1 (yes)

Asked: Strictly below 90%: is that where cell viability of C[C@@]12C[C@@]3(O)O[C@@H](O1)[C@]1(COC(=O)c4ccccc4)[C@H]3C[C@@]12O[C@@H]1O[C@H](CO)[C@@H](O)[C@H](O)[C@H]1O sits?
Given back: 0 (no)

Asked: Strictly below 90%: is that where cell viability of Cn1cnc(-c2cc3nccc(Oc4ccc(NC(=S)NC(=O)Cc5ccccc5)cc4F)c3s2)c1 sits?
Given back: 1 (yes)

Asked: Strictly below 90%: is that where cell viability of Nc1ncnc2c1ncn2C1CC(O)C(CO)O1 (configuration not stated) [2'-Deoxyadenosine monohydrate] sits?
Given back: 0 (no)
